// reported self-splicing fitness (ln) for each item listed
# Assay Summary: self-splicing fitness, log relative to wild type (ln ratio); higher = more splicing; Tetrahymena group I intron in knt gene, E. coli kanamycin selection, DiMSum; sequences stand for … in CUCUCU…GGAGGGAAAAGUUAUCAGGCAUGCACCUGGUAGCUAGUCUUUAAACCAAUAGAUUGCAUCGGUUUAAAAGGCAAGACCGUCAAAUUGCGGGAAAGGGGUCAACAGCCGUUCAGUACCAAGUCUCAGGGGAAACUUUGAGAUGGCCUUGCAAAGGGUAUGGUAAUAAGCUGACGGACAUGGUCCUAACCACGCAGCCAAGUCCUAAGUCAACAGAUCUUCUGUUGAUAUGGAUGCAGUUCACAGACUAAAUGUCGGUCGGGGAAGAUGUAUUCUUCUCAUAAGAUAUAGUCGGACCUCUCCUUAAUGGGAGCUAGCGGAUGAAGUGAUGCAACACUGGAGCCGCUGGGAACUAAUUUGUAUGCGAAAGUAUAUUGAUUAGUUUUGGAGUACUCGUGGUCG;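 note: selection with 25 µg/mL kanamycin versus none on LB agar overnight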
# Test Context: 30 °C
Observation Type: self-splicing fitness (ln)

[[record]]
sequence_content = "CCAUAGCAAUAUUACGAGGA"
recorded_value = -2.97

[[record]]
sequence_content = "CGUUAGCAAUAUUACGGAAG"
recorded_value = -1.02

[[record]]
sequence_content = "GCUAAGCAAUAUUACGAGUG"
recorded_value = -1.09

[[record]]
sequence_content = "UAAUAGCAAUAUUACGACUC"
recorded_value = -3.23

[[record]]
sequence_content = "UGGAAGCAAUAUUACGGUAC"
recorded_value = -4.18


====

# Assay Summary: self-splicing fitness, log relative to wild type (ln ratio); higher = more splicing; Tetrahymena group I intron in knt gene, E. coli kanamycin selection, DiMSum; sequences stand for … in CUCUCU…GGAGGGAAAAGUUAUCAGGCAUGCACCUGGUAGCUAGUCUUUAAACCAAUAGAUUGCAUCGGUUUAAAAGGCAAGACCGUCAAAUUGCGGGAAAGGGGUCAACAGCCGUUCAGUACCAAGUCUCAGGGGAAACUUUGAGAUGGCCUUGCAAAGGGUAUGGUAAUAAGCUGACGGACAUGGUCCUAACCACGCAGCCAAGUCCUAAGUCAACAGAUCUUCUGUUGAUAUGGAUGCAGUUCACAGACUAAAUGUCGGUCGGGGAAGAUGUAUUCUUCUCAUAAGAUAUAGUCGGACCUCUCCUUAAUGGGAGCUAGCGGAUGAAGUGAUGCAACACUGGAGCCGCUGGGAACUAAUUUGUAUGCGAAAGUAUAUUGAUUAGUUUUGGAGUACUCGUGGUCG
# Test Context: 37 °C
Label Yes when self-splicing fitness (ln) is at or above -1; anything below gets No.

[[record]]
sequence_content = "AAGUAGCAAUAUUACGUUAG"
assigned_class = "No"

[[record]]
sequence_content = "CCCGAGCAAUAUUACGUGCG"
assigned_class = "No"

[[record]]
sequence_content = "AAACAGCAAUAUUACGCGGU"
assigned_class = "No"

[[record]]
sequence_content = "CCUCAGCAAUAUUACGGCCU"
assigned_class = "No"

[[record]]
sequence_content = "AGGGAGCAAUAUUACGGGAU"
assigned_class = "No"

[[record]]
sequence_content = "GUUCAGCAAUAUUACGCGAC"
assigned_class = "No"

[[record]]
sequence_content = "AUAUAGCAAUAUUACGAUGU"
assigned_class = "Yes"

[[record]]
sequence_content = "GUUAAGCAAUAUUACGAUAA"
assigned_class = "Yes"

[[record]]
sequence_content = "CCUUAGCAAUAUUACGAAAU"
assigned_class = "No"

[[record]]
sequence_content = "AAGAAGCAAUAUUACGUCCG"
assigned_class = "Yes"

[[record]]
sequence_content = "GACUAGCAAUAUUACGCCGA"
assigned_class = "Yes"

[[record]]
sequence_content = "CAGGAGCAAUAUUACGCGAG"
assigned_class = "No"


====

// reported self-splicing fitness (ln) for each item listed
# Assay Summary: self-splicing fitness, log relative to wild type (ln ratio); higher = more splicing; Tetrahymena group I intron in knt gene, E. coli kanamycin selection, DiMSum; sequences stand for … in CUCUCU…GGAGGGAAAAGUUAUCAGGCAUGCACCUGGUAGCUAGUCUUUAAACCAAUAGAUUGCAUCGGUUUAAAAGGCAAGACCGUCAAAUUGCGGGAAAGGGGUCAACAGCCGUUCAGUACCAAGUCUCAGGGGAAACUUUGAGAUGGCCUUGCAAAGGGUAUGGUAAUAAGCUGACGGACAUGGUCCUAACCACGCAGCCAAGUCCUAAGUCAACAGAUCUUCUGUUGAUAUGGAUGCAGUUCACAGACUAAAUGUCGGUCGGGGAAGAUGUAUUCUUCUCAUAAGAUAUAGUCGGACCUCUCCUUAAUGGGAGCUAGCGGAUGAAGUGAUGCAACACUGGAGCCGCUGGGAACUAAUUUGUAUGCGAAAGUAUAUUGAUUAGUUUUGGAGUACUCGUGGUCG
# Test Context: 37 °C
Observation Type: self-splicing fitness (ln)

[[record]]
sequence_content = "UCCGAGCAAUAUUACGAGAG"
recorded_value = -2.91

[[record]]
sequence_content = "GCCAAGCAAUAUUACGAGCG"
recorded_value = -1.08

[[record]]
sequence_content = "CCACAGCAAUAUUACGUCAC"
recorded_value = -2.86

[[record]]
sequence_content = "CAGCAGCAAUAUUACGCAUU"
recorded_value = -0.546

[[record]]
sequence_content = "GGCUAGCAAUAUUACGUUAG"
recorded_value = -0.919

[[record]]
sequence_content = "UAUAAGCAAUAUUACGCGAG"
recorded_value = -1.02

[[record]]
sequence_content = "CUUCAGCAAUAUUACGUCGC"
recorded_value = -2.3

[[record]]
sequence_content = "ACUGAGCAAUAUUACGUGCG"
recorded_value = -1.28

[[record]]
sequence_content = "UUGUAGCAAUAUUACGCGUC"
recorded_value = -0.917

[[record]]
sequence_content = "UCAAAGCAAUAUUACGCUUA"
recorded_value = -2.53

[[record]]
sequence_content = "UUGGAGCAAUAUUACGCAGG"
recorded_value = -1.99

[[record]]
sequence_content = "GUUAAGCAAUAUUACGGUCU"
recorded_value = -0.0437

[[record]]
sequence_content = "GCGAAGCAAUAUUACGCAAA"
recorded_value = -2.07

[[record]]
sequence_content = "GAAAAGCAAUAUUACGACAA"
recorded_value = -0.496

[[record]]
sequence_content = "UAGAAGCAAUAUUACGUUUU"
recorded_value = -2.85

[[record]]
sequence_content = "ACAGAGCAAUAUUACGUGAU"
recorded_value = -2.08

[[record]]
sequence_content = "CCGAAGCAAUAUUACGUGGG"
recorded_value = -2.39

[[record]]
sequence_content = "CUCCAGCAAUAUUACGGUCA"
recorded_value = -1.82

[[record]]
sequence_content = "ACCCAGCAAUAUUACGGUCC"
recorded_value = -1.4

[[record]]
sequence_content = "CCGAAGCAAUAUUACGGGUU"
recorded_value = -2.64

[[record]]
sequence_content = "CCAGAGCAAUAUUACGACAG"
recorded_value = -0.408

[[record]]
sequence_content = "CUACAGCAAUAUUACGGGUA"
recorded_value = -2.05

[[record]]
sequence_content = "GGGUAGCAAUAUUACGAACA"
recorded_value = -0.706

[[record]]
sequence_content = "UUAAAGCAAUAUUACGACGC"
recorded_value = 0.177

[[record]]
sequence_content = "GUACAGCAAUAUUACGAAGA"
recorded_value = -1.83

[[record]]
sequence_content = "AUCUAGCAAUAUUACGGUUA"
recorded_value = -0.055

[[record]]
sequence_content = "CGCUAGCAAUAUUACGAUAU"
recorded_value = -2.63

[[record]]
sequence_content = "CUGGAGCAAUAUUACGAAUC"
recorded_value = -1.68

[[record]]
sequence_content = "ACCCAGCAAUAUUACGGGGA"
recorded_value = -0.524

[[record]]
sequence_content = "CCAUAGCAAUAUUACGAUCA"
recorded_value = -3.23

[[record]]
sequence_content = "ACUAAGCAAUAUUACGGUCC"
recorded_value = -1.04

[[record]]
sequence_content = "AGAGAGCAAUAUUACGGUGU"
recorded_value = -2.97

[[record]]
sequence_content = "UCUGAGCAAUAUUACGCAUU"
recorded_value = -2.15

[[record]]
sequence_content = "UUAAAGCAAUAUUACGUGAG"
recorded_value = -0.201

[[record]]
sequence_content = "CUGAAGCAAUAUUACGUCAG"
recorded_value = -1.46

[[record]]
sequence_content = "CUAGAGCAAUAUUACGAAUU"
recorded_value = -1.95

[[record]]
sequence_content = "UUUAAGCAAUAUUACGACCG"
recorded_value = 0.563

[[record]]
sequence_content = "GUUUAGCAAUAUUACGGAAG"
recorded_value = -0.848

[[record]]
sequence_content = "UUUAAGCAAUAUUACGCUGG"
recorded_value = -0.317

[[record]]
sequence_content = "GUCCAGCAAUAUUACGCGGA"
recorded_value = -4.4

[[record]]
sequence_content = "GGCUAGCAAUAUUACGCGCG"
recorded_value = 0.174

[[record]]
sequence_content = "UCAGAGCAAUAUUACGUUGG"
recorded_value = -2.9

[[record]]
sequence_content = "GCAAAGCAAUAUUACGGGUC"
recorded_value = -1.05

[[record]]
sequence_content = "AAAAAGCAAUAUUACGGGGA"
recorded_value = -1.8

[[record]]
sequence_content = "UAGUAGCAAUAUUACGGAGA"
recorded_value = -3.35

[[record]]
sequence_content = "AACCAGCAAUAUUACGUAAU"
recorded_value = -0.238

[[record]]
sequence_content = "CGAAAGCAAUAUUACGUCAU"
recorded_value = -0.631

[[record]]
sequence_content = "CAUGAGCAAUAUUACGUUAA"
recorded_value = -2.29

[[record]]
sequence_content = "GCGGAGCAAUAUUACGCGUA"
recorded_value = -1.53

[[record]]
sequence_content = "CCCCAGCAAUAUUACGUAAC"
recorded_value = -2.67

[[record]]
sequence_content = "GCCCAGCAAUAUUACGAUUA"
recorded_value = -0.936

[[record]]
sequence_content = "UGUCAGCAAUAUUACGAAUU"
recorded_value = -1.04

[[record]]
sequence_content = "GGUAAGCAAUAUUACGUUAG"
recorded_value = -1.72

